Hey, just so you know, these numbers are from patent US12370208B2.

- assay.remarks: Liver S9 stability and conversion to EFdA in human liver S9
- Type: in vitro ADME
- experimental.parameters: human liver S9
measured.parameter: Stability in Human Liver S9 Formation of EFdA

Worked cases, answers included:
C#C[C@]1(COC(=O)NCCN(C)Cc2oc(=O)oc2C)O[C@@H](n2cnc3c(N)nc(F)nc32)C[C@@H]1O [Formula 7-A] ... No
C#C[C@]1(CO)O[C@@H](n2cnc3c(NC(=O)OC(C)C)nc(F)nc32)C[C@@H]1O [Formula 3-A] ... No
C#C[C@]1(COC(=O)OCc2oc(=O)oc2C)O[C@@H](n2cnc3c(N)nc(F)nc32)C[C@@H]1OC(=O)OCc1oc(=O)oc1C [Formula 4-C] ... Yes
C#C[C@]1(COC(=O)NC(C)C)O[C@@H](n2cnc3c(N)nc(F)nc32)C[C@@H]1O [Formula 2-A] ... No
C#C[C@]1(COC(=O)NC)O[C@@H](n2cnc3c(N)nc(F)nc32)C[C@@H]1O [Formula 5-A] ... No
C#C[C@]1(COC(=O)OCc2oc(=O)oc2C)O[C@@H](n2cnc3c(N)nc(F)nc32)C[C@@H]1O [Formula 4-A] ... Yes

Could you now look at the following compound, please?
According to the records, this compound C#C[C@]1(CO)O[C@@H](n2cnc3c(NCc4oc(=O)oc4C)nc(F)nc32)C[C@@H]1O [Formula 6-A] displays Stability in Human Liver S9 Formation of EFdA of Yes
